- target_desc: T1, recombinant hCTLA-4-mFc (human CTLA-4 extracellular domain with a C-terminal Fc portion of mouse IgG2a) (human)
- T1 construct: also called dimeric CTLA-4 protein
- protocol_details: competition ELISA, 400 pM hCTLA-4-mFc on plate-coated hB7-2-hIgG1-6His
Item-by-item account of % Blockade
// return numeric value only (unit: %, not printed)

Below, 2 binders whose answers are already recorded.
H1H19305P (antibody, human IgG1, V domains shown) VH: QVQLQESGPGLVKPSQTLSLTCTVSGGSITSGGYYWSWIRQHPGKGLEWIGYIFYSGITNYNPSLKSRVTISVDTSKNQFSLKLTSVTAADTAVYYCATYNSLRLYYGMDVWGQGTTVTVSS VL: DVVMTQSPLSLPVILGQPASISCRSSQSLVYGDGNTYLNWFQQRPGQSPRRLIYKVSNRDSGVPDRFSGSGSGTDFTLKISRVEAEDVGVYYCMQSTHWPLTFGGGTKVEIK | 99
H1H19274P (antibody, human IgG1, V domains shown) VH: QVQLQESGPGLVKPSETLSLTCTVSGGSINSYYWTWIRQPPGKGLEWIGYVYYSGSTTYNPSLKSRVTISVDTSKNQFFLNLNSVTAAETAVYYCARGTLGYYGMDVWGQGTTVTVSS VL: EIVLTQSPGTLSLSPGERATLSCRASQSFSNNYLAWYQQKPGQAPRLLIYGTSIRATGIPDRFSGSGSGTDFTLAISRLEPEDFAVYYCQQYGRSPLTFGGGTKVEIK | 100

Now take the following binder into account.
Return the recorded % Blockade value; entry: H1H20361N (antibody, human IgG1, V domains shown, here with human IgG1 Fc (H1H)) VH: QVQLQESGPGLVKPSQTLSLTCTVSGGSINNGGHYWTWIRQHPGKGLEWIGYIYYIGTTYYNPSLESRLSLSVDTSKNQFSLKLSSVTAADTAIYYCARSSLSVSEAFDVWGQGTMVTVSS VL: DIQMTQSPSSLSASVGDRITITCRGSQNIGSFLSWYQQRPGKAPKLLIFGAYNLQGGVPSRFSGSGSGTDFTLTISSLQPEDFATYFCQQSYSTPPITFGQGTRLEIK
82
